procedureSummary: Microsomal stability in mouse liver microsomes assessed as parent compound remaining preincubated for 5 mins followed by NADPH addition measured after 30 mins by LC-MS/MS analysis
Format: ADME, Microsome
protocolConditions: time 35 min, read-out: Stability
The following compounds are listed with their measured remaining at 0.5 h values.
observable: remaining at 0.5 h (%)

1. CC(C)Oc1ccc(COc2ccc3c(c2)CCN(S(=O)(=O)CCC(=O)O)C3)cc1C#N: 100
2. CC(C)Oc1ccc(COc2ccc3c(c2)CCN(S(=O)(=O)CCC(=O)N(C)C)C3)cc1C#N: 14.1
3. CC(C)Oc1ccc(COc2ccc3c(c2)CCN(C(=O)CCC(=O)N(C)C)C3)cc1C#N: 11.4
4. CC(C)Oc1ccc(COc2ccc3c(c2)CCN(C(=O)CCNS(C)(=O)=O)C3)cc1C#N: 42.8
